B1: LINE1-mini (parent)
chain: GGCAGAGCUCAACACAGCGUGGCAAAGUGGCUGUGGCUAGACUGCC

- Variants of: B1
- TEST: self-cleavage, relative activity (ratio to wild type); higher = more cleavage; in vitro, sequencing; the parent is a self-cleaving ribozyme
// reported self-cleavage for each item listed
Give the figure only, with no unit attached.

A selection of reference data follows.
Data request, read-out self-cleavage, for A4C G21C
0.18

Then this variant: C13A C37A
0.09

Then this variant: A16G G29U
0.77

Continuing:
Data request, read-out self-cleavage, for U9A G44C
0.07

Then this variant: G30C
1.63

Then this variant: G1U U38A
0.13

Then this variant: A6U G17C
0.59

Then this variant: A24G G40C
0.18

Then this variant: C15A A26U
0.08

Then this variant: G17U U34A
0.05

Then this variant: U34G U43C
0.07

Then this variant: G30A G33U
0.08

Then this variant: A26U C46G
1.18

Then this variant: G19C C46G
0.23
